ASSAY_REMARKS: Pharmacokinetics and brain distribution after single iv dose
STUDY_CONDITIONS: male, CD-1, mouse, in vivo, 5 mg/kg
Counter-ions that a name gives are not always drawn.
MEASUREMENT_NAME: concentration at 30 min (nM)
Give bare numbers, in nM.

# COMPOUND, RECORDED_RESULT
records = [
    ("N=C(N)Nc1ccc(Oc2ccc(S(=O)(=O)CC3CS3)cc2)cc1 (stereo not drawn) [Compound 7, HCl salt]", 482),
    ("CC(=O)NCc1ccc(Oc2ccc(S(=O)(=O)CC3CS3)cc2)cc1 (stereo not drawn) [Compound 6]", 1640),
]

Field concentration at 30 min (entry NCc1ccc(Oc2ccc(S(=O)(=O)CC3CS3)cc2)cc1 (stereo not drawn) [Compound 5, HCl salt] ) reads 377
